System: HIF-1α activation of the HRE-driven reporter
testSummary: Dual luciferase reporter assay (HRE-driven luciferase activity)
Assay type: cell-based, Human
assayContext: HEK293 cells, complexes 10 μM, 8 h; complexes 1-14; ranking in words
experimentalReadout: HRE-driven luciferase activity (HIF-1α transcriptional activity), first round of screening

COC(=O)c1cc[n+]2c(c1)-c1cc(C(=O)OC)cc[n+]1[Rh-3]213([c]2ccccc2-c2ccc4ccccc4[n+]21)[c]1ccccc1-c1ccc2ccccc2[n+]13.F[P-](F)(F)(F)(F)F : low activity
CCc1ccc2[c](c1)[Rh-3]13([c]4cc(CC)ccc4-c4ccc5ccccc5[n+]41)([n+]1ccc(OC)cc1-c1cc(OC)cc[n+]13)[n+]1c-2ccc2ccccc21.F[P-](F)(F)(F)(F)F : low activity
F[P-](F)(F)(F)(F)F.O=[N+]([O-])c1cc2ccc[n+]3c2c2c1ccc[n+]2[Ir-3]312([c]3cc(F)cc(F)c3-c3cccc[n+]31)[c]1cc(F)cc(F)c1-c1cccc[n+]12 : low activity

---

systemName: human recombinant VHL:ElonginB:ElonginC (VBC) complex (Homo sapiens)
testSummary: Competitive fluorescence polarization binding assay
assayContext: 125 nM fluorescent peptide and 450 nM VBC, four-parameter logistic equation
experimentalReadout: pIC50
Hey, just a heads up that pIC50 is the negative log base 10 of the concentration in molar.

Short answer for COc1cc[n+]2c3c1ccc1c(OC)cc[n+](c13)[Ir-3]213([c]2ccccc2-c2cccc[n+]21)[c]1ccccc1-c1cccc[n+]13.F[P-](F)(F)(F)(F)F [1a] : pIC50 was 5.42

---

systemName: human recombinant VHL:ElonginB:ElonginC (VBC) complex (Homo sapiens, UniProt P40337)
Construct: made in house
testSummary: Competitive fluorescence polarization binding assay
assayContext: displacement of FAM-DEALAHyp-YIPD from VBC
experimentalReadout: Kd (nM)
Just the number please, in nM, no unit attached.

Short answer for `COc1cc[n+]2c3c1ccc1c(OC)cc[n+](c13)[Ir-3]213([c]2ccccc2-c2cccc[n+]21)[c]1ccccc1-c1cccc[n+]13.F[P-](F)(F)(F)(F)F` : Kd was 2060
